Tested on: HCC-2998 colon
Assay: NCI tumour cell line growth inhibition, 48 h
property.label: TGI

compound	study.target	property.label	observed.value
Cn1cc(-c2cnc3ccc(NC(=O)Nc4ccc(F)c(Br)c4)cc3n2)cn1	HCC-2998 colon	TGI	3.5 µM
O=C(CN1CCOCC1)Nc1ccc(Cn2nnc3c2C(=O)c2nnn(Cc4ccc(NC(=O)CN5CCOCC5)cc4)c2C3=O)cc1	HCC-2998 colon	TGI	1.34 µM
Cc1cc(N(CCOS(C)(=O)=O)CCOS(C)(=O)=O)ccc1C=Nc1ccc(-c2nc(Cc3ccccc3)sc2C)cc1	HCC-2998 colon	TGI	15.7 µM
CC(C)OP(=O)(OC(C)C)c1c(Nc2ccccc2)n[nH]c1N	HCC-2998 colon	TGI	> 100 µM
CC(C)CC(=O)[O-].CC(C)CC(=O)[O-].N.N.N.N.[Co+3].[O-][Cl+3]([O-])([O-])[O-]	HCC-2998 colon	TGI	> 100 µM
CCCCCCCCCCCCCCCCCCNc1ccn(C2OC(COP(=O)(O)OCC3OC(n4ccc(NC(=O)CCCCCCCCCCCCCCCCC)nc4=O)C(OC(C)=O)C3OC(C)=O)C(OC(C)=O)C2OC(C)=O)c(=O)n1 (centres undefined)	HCC-2998 colon	TGI	> 100 µM

Input: Please look up its TGI: C/C(CCOC1CCCCO1)=C(\C)[Si](C)(C)C (centres undefined)
Output: > 100 µM

Input: Quick one: Cc1ccc([C@@H]2[C@@H](C(=O)c3ccccn3)[C@H](c3ccc(C)cc3)C[C@](O)(c3ccccn3)[C@H]2C(=O)c2ccccn2)cc1
Output: > 100 µM

---

Tested on: MALME-3M melanoma
Test: NCI tumour cell line growth inhibition, 48 h
GI50: recorded values

compound	GI50
CCc1c(Oc2ccc(C(C)=O)cc2)c2ccccc2[nH]c1=O	9.09 µM

Input: Please look up its GI50: CCCCC(=O)OCC1OC(n2cnc3c(=S)nc[nH]c32)C(OC(=O)CCCC)C1OC(=O)CCCC (stereo not given)
Output: > 22.1 µM

Input: Quick one: COc1cc(OC)cc(-c2ccc(-c3ccc(C(=N)N)o3)o2)c1
Output: 2.04 µM

---

Tested on: SK-OV-3 ovarian
Assay: NCI tumour cell line growth inhibition, 48 h
TGI: recorded values

Some entries whose results are on file:
compound	observed.value
COc1ccc(N2C(=O)C3c4[nH]c5ccc(OCc6ccccc6)cc5c4C4CCC(C(C)(C)C)CC4C3C2=O)cc1 (stereo not drawn)	> 100 µM
COc1cc(/C=C/c2cc(/C=C/c3ccc(O)c(OC)c3)n(-c3ccccc3)n2)ccc1O	1.27 µM
O=C1C=CC(=Nc2ccc3c(c2)C(Br)c2ccccc2-3)O1 (stereo not drawn)	> 100 µM
Cc1nc2cccc([N+](=O)[O-])c2c(NCCCN(C)C)c1C	> 100 µM

Input: Please look up its TGI: N=C1CSC2=NC3=C(CCC/C3=C\c3ccccc3)C(c3ccccc3)N12 (stereo not drawn)
Output: 28.4 µM

Input: Quick one: Cc1nc(-c2ccc([N+](=O)[O-])cc2)cn2c1nc1ccccc12
Output: > 100 µM

Input: Quick one: COC(=O)CC(C(C(=O)OC)C(=O)OC)N1C(=O)OCC1c1ccccc1 (stereo not drawn)
Output: > 100 µM

---

Test system: 786-0 renal
Assay: NCI tumour cell line growth inhibition, 48 h
TGI: recorded values

Some entries whose results are on file:
molecule	TGI
C=C(C)C12CC(COC(=O)c3ccccc3)C34OC5(OC1C3C1OC1(CO)C(O)C1(O)C(OC(=O)c3ccccc3)C(C)C(C(C)CCCCCCC5O)C14)O2 (stereo not drawn)	> 100 µM
CC1=C(C(=O)Nc2ccc([N+](=O)[O-])cc2)C(c2ccc(N(C)C)cc2)C(C(=O)Nc2ccc([N+](=O)[O-])cc2)=C(C)N1	57.6 µM
CCOc1cc(NC(C)=O)ccc1C(=O)NNC(=O)c1ccccc1OC(C)=O	> 90.3 µM
N.N.N.O=[N+]([O-])[O-].O=[N+]([O-])[O-].O=[N+]([O-])[O-].O=[N+]([O-])[O-].[Co+3]	> 100 µM
Cc1ccc(-c2c(C#N)c(-c3ccccc3)n(NS(=O)(=O)c3ccccc3)c(=O)c2C#N)cc1	> 100 µM

Input: Please look up its TGI: O=C(O)c1c2c(cc3c1CC1(Cc4ccccc4C1)C3)CCC2
Output: > 100 µM

Input: Quick one: COc1ccc2[nH]c3c(C)c4c(c(C)c3c2c1)CN(C)CC4
Output: 27.8 µM

Input: Quick one: CCNCCNc1cc(-c2ccc(C(=O)OC)cc2)c(C#N)c2nc3ccccc3n12
Output: 3.46 µM
